B1: LCOR (parent)
chain: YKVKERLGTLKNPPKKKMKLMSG

variants of: B1; experiment: protein stability index of a GFP-peptide fusion (GPS, HEK-293T) (PSI 1-6); higher = more stable; details: c terminus: native;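 further: lentivirally expressed fusions sorted by FACS into six bins by GFP to DsRed ratio, PSI derived from sequencing read proportions per bin multiplied by bin number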
I'd be grateful if you could share measured protein stability index for these entries.
One number for each entry.

{"columns": ["mutation_name", "readout_kind", "endpoint_value"],
 "data": [
  ["L20T", "protein stability index", 2.32]
]}

Hi! Can you tell me protein stability index for each of these variants?
1. V3M
2. N12S
3. K17P
4. K17W
5. R6M
6. M18Y

**Result**
1: 2.46; 2: 1.72; 3: 2.59; 4: 1.83; 5: 2.5; 6: 2.43
